experimental system: ΔF508-CFTR (Homo sapiens, UniProt P13569, DEL508-508)
Construct: expressed in transfected cells
Sequence (P13569 with tags, fused parts or gaps DEL508-508): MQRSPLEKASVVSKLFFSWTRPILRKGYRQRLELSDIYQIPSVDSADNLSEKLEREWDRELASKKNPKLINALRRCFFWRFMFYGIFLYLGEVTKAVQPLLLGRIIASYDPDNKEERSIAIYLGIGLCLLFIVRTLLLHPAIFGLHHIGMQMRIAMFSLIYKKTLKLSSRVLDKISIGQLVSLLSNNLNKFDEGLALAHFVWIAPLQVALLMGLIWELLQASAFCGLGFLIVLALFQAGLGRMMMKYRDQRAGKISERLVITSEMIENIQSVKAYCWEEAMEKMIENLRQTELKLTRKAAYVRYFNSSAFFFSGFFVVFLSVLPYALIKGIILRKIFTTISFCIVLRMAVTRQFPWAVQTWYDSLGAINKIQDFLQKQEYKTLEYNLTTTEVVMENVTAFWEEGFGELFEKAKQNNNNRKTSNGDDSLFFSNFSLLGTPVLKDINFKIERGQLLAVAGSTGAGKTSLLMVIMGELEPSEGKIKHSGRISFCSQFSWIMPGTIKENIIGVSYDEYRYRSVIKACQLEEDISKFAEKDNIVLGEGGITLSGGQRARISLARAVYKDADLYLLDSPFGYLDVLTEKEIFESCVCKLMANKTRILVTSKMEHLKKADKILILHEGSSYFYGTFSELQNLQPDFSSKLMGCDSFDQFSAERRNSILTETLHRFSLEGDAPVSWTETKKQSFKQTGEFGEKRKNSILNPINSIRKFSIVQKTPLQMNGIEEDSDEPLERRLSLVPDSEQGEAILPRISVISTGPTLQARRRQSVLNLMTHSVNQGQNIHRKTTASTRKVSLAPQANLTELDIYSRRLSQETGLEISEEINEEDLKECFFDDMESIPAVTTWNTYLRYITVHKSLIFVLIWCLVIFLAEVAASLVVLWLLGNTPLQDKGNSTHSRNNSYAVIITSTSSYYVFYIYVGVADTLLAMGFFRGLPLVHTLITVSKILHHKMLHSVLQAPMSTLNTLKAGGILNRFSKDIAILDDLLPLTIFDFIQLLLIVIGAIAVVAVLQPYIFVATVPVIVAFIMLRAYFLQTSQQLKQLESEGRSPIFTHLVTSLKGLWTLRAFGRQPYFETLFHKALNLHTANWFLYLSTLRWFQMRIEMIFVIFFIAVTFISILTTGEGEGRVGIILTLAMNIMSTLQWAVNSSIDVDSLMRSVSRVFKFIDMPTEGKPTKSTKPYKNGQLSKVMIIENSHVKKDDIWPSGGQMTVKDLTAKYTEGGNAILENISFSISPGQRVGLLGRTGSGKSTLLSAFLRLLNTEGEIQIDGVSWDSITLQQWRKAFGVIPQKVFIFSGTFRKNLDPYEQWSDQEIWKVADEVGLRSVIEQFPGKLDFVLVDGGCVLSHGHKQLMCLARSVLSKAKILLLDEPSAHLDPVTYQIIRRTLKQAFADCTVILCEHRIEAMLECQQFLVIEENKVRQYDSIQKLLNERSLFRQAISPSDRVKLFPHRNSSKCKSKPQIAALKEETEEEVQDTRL
test protocol: Membrane potential optical assay (FRET voltage-sensor dyes, VIPR), identification of potentiator compounds
Format: cell-based
measurement setup: Table 3; assay not given; read-out: % Activity (% Efficacy, relative efficacy)
recorded endpoint: Emax

// worked examples, Emax included
{"given smiles": "O=C(Nc1ccccc1-n1cccc1)c1c[nH]c2ccccc2c1=O", "Emax": "> 100%"}
{"given smiles": "O=C(Nc1ccc(N2CCCCC2)cc1C(F)(F)F)c1c[nH]c2ccccc2c1=O", "Emax": "25 to 100%"}
{"given smiles": "Cc1ccc(C(F)(F)F)cc1NC(=O)c1c[nH]c2cccc(O)c2c1=O", "Emax": "25 to 100%"}
{"given smiles": "CC(CO)(CO)c1ccc(NC(=O)c2c[nH]c3ccccc3c2=O)cc1", "Emax": "< 25%"}
{"given smiles": "COc1cccc(NC(=O)c2c[nH]c3ccccc3c2=O)c1", "Emax": "25 to 100%"}
{"given smiles": "Cc1cccc2c(=O)c(C(=O)Nc3cc4[nH]ccc4cc3C(C)(C)C)c[nH]c12", "Emax": "< 25%"}

Emax recorded for this compound, `O=C(Nc1ccccc1-c1ccc(F)cc1F)c1c[nH]c2ccccc2c1=O` , is 25 to 100%

Emax recorded for this compound, `COCCOC(=O)NCC(C)(C)c1ccc(NC(=O)c2c[nH]c3ccccc3c2=O)cc1` , is 25 to 100%

Emax recorded for this compound, `Cc1ccc(NC(=O)c2c[nH]c3ccccc3c2=O)cc1` , is 25 to 100%

Emax recorded for this compound, `O=C(Nc1cc(Cl)cc(NS(=O)(=O)CCN2CCOCC2)c1)c1c[nH]c2ccccc2c1=O` , is 25 to 100%

Emax recorded for this compound, `COc1cc(NC(=O)c2c[nH]c3cccc(O)c3c2=O)cc(C(F)(F)F)c1` , is 25 to 100%

###

Consider the following compounds and their measured Emax readings.
experimental system: ΔF508-CFTR (Homo sapiens, UniProt P13569, DEL508-508)
Construct: expressed in transfected cells
test protocol: Membrane potential optical assay (FRET voltage-sensor dyes, VIPR), identification of potentiator compounds
Type: cell-based
measurement setup: Table 3; assay not given; read-out: % Activity (% Efficacy, relative efficacy)

// worked examples, Emax included
{"compound": "Cc1cccc2[nH]cc(C(=O)Nc3ccc(N4CCC(C)C4)cc3C(F)(F)F)c(=O)c12 (centres unmarked)", "experimental system": "ΔF508-CFTR (Homo sapiens, UniProt P13569, DEL508-508)", "reported": "25 to 100%"}
{"compound": "O=C(Nc1ccc(-c2ccccc2)cn1)c1c[nH]c2ccccc2c1=O", "experimental system": "ΔF508-CFTR (Homo sapiens, UniProt P13569, DEL508-508)", "reported": "< 25%"}
{"compound": "CC(C)n1cc(C(=O)Nc2ccccc2)c(=O)c2ccccc21", "experimental system": "ΔF508-CFTR (Homo sapiens, UniProt P13569, DEL508-508)", "reported": "25 to 100%"}

Emax recorded for this compound, `CC(C)c1ccc(NC(=O)c2c[nH]c3ccc(Cl)cc3c2=O)c(C(F)(F)F)c1` , is 25 to 100%

Emax recorded for this compound, `C[C@H]1CCCCN1c1ccc(NC(=O)c2c[nH]c3ccccc3c2=O)c(C(F)(F)F)c1` , is > 100%

Emax recorded for this compound, `O=C(Nc1ccc2c(c1)NCCCC2)c1c[nH]c2ccccc2c1=O` , is 25 to 100%

Emax recorded for this compound, `CC(C)(C)c1cc2cc[nH]c2cc1NC(=O)c1c[nH]c2cccc(O)c2c1=O` , is 25 to 100%

###

experimental system: ΔF508-CFTR (Homo sapiens, UniProt P13569, DEL508-508)
Construct: expressed in transfected cells
test protocol: Membrane potential optical assay (FRET voltage-sensor dyes, VIPR), identification of potentiator compounds
Type: cell-based
measurement setup: Table 3; assay not given; read-out: % Activity (% Efficacy, relative efficacy)
Consider the following compounds and their measured Emax readings.

// worked examples, Emax included
{"given smiles": "O=C(Nc1ccc(OC(F)F)cc1)c1c[nH]c2ccccc2c1=O", "Emax": "25 to 100%"}
{"given smiles": "O=C(Nc1ccc(Sc2ccccc2)cc1)c1c[nH]c2ccccc2c1=O", "Emax": "25 to 100%"}
{"given smiles": "CC(C)(C)c1cc(C(C)(C)C)c(NC(=O)c2c[nH]c3ccc(F)cc3c2=O)cc1O", "Emax": "> 100%"}

In the following, a different compound is considered.
Emax recorded for this compound, `Cc1cccc2[nH]cc(C(=O)Nc3ccc(N4CCC(C)(C)C4)cc3C(F)(F)F)c(=O)c12` , is 25 to 100%

###

experimental system: ΔF508-CFTR (Homo sapiens, UniProt P13569, DEL508-508)
Construct: expressed in transfected cells
test protocol: Membrane potential optical assay (FRET voltage-sensor dyes, VIPR), identification of potentiator compounds
Format: cell-based
measurement setup: Table 3; assay not given; read-out: % Activity (% Efficacy, relative efficacy)
Consider the following compounds and their measured Emax readings.

Emax recorded for this compound, Cc1ccc2c(=O)c(C(=O)Nc3ccc(N4CCC[C@@H]4C)cc3C(F)(F)F)c[nH]c2c1 [Compound 607] , is 25 to 100%

Emax recorded for this compound, Cc1cc(-c2ccccc2NC(=O)c2c[nH]c3ccccc3c2=O)ccc1F [Compound 79] , is 25 to 100%

Emax recorded for this compound, Cc1cccc2[nH]cc(C(=O)Nc3ccc(N4[C@H](C)CC[C@H]4C)cc3C(F)(F)F)c(=O)c12 [Compound 539] , is 25 to 100%

Emax recorded for this compound, COc1ccc(Oc2ccc(C(F)(F)F)cc2NC(=O)c2c[nH]c3ccccc3c2=O)cc1 [Compound 205] , is 25 to 100%

Emax recorded for this compound, O=C(Nc1cccc(S(=O)(=O)N2CCCC2)c1)c1c[nH]c2ccccc2c1=O [Compound 24] , is < 25%

Emax recorded for this compound, O=C(Nc1ccccc1-c1ccc(Cl)c(Cl)c1)c1c[nH]c2ccccc2c1=O [Compound 85] , is 25 to 100%

Emax recorded for this compound, Cc1ccccc1Oc1ccccc1NC(=O)c1c[nH]c2ccccc2c1=O [Compound 20] , is 25 to 100%

Emax recorded for this compound, O=C(Nc1cccc2c1CCCC2)c1c[nH]c2ccccc2c1=O [Compound 286] , is > 100%

###

experimental system: ΔF508-CFTR (Homo sapiens, UniProt P13569, DEL508-508)
Construct: expressed in transfected cells
test protocol: Membrane potential optical assay (FRET voltage-sensor dyes, VIPR), identification of potentiator compounds
Format: cell-based
measurement setup: Table 3; assay not given; read-out: % Activity (% Efficacy, relative efficacy)
Consider the following molecules and their measured Emax readings.

{"given smiles": "CC(C)(C)c1cc(F)c(NC(=O)c2c[nH]c3ccc(F)cc3c2=O)cc1O", "recorded endpoint": "Emax", "reported": "25 to 100%"}
{"given smiles": "CCOc1ccccc1-c1ccc(CNC(=O)OC(C)(C)C)cc1NC(=O)c1c[nH]c2ccccc2c1=O", "recorded endpoint": "Emax", "reported": "25 to 100%"}
{"given smiles": "CCOc1ccc2[nH]cc(C(=O)Nc3cc4[nH]ccc4cc3C(C)(C)C)c(=O)c2c1", "recorded endpoint": "Emax", "reported": "25 to 100%"}
{"given smiles": "O=C(Nc1ccccc1-c1cccc(C(F)(F)F)c1)c1c[nH]c2ccccc2c1=O", "recorded endpoint": "Emax", "reported": "25 to 100%"}

Note to self: Emax of `CC(C)(C)c1cc2cc[nH]c2cc1NC(=O)c1c[nH]c2cc(C#N)ccc2c1=O` with ΔF508-CFTR (Homo sapiens, UniProt P13569, DEL508-508) was 25 to 100%

###

experimental system: ΔF508-CFTR (Homo sapiens, UniProt P13569, DEL508-508)
Construct: expressed in transfected cells
test protocol: Membrane potential optical assay (FRET voltage-sensor dyes, VIPR), identification of potentiator compounds
Type: cell-based
measurement setup: Table 3; assay not given; read-out: % Activity (% Efficacy, relative efficacy)
recorded endpoint: Emax

// worked examples, Emax included
{"given smiles": "CC(C)c1ccc(NC(=O)c2c[nH]c3ccc(F)cc3c2=O)c(C(F)(F)F)c1", "recorded endpoint": "Emax", "reported": "25 to 100%"}
{"given smiles": "O=C(Nc1ccc(N2CCN(CCO)CC2)cc1C(F)(F)F)c1c[nH]c2ccccc2c1=O", "recorded endpoint": "Emax", "reported": "25 to 100%"}
{"given smiles": "COc1ccc2c(=O)c(C(=O)Nc3ccc(N4CCC[C@@H]4C)cc3C(F)(F)F)c[nH]c2c1", "recorded endpoint": "Emax", "reported": "25 to 100%"}

Note to self: Emax of `CCc1ccc(N)cc1NC(=O)c1c[nH]c2ccccc2c1=O` with ΔF508-CFTR (Homo sapiens, UniProt P13569, DEL508-508) was 25 to 100%

Note to self: Emax of `CC(C)(C)OC(=O)N1CCc2ccc(NC(=O)c3c[nH]c4ccccc4c3=O)cc2C1` with ΔF508-CFTR (Homo sapiens, UniProt P13569, DEL508-508) was 25 to 100%

Note to self: Emax of `CCOC(=O)Nc1cc(NC(=O)c2c[nH]c3ccccc3c2=O)ccc1C` with ΔF508-CFTR (Homo sapiens, UniProt P13569, DEL508-508) was 25 to 100%

Note to self: Emax of `O=C(Nc1ccc(C(F)(F)F)nc1)c1c[nH]c2ccccc2c1=O` with ΔF508-CFTR (Homo sapiens, UniProt P13569, DEL508-508) was < 25%

Note to self: Emax of `CC(C)c1cc(C(F)(F)F)c(NC(=O)c2c[nH]c3ccccc3c2=O)cc1OCc1ccccc1` with ΔF508-CFTR (Homo sapiens, UniProt P13569, DEL508-508) was 25 to 100%

Note to self: Emax of `O=C(Nc1ccc(OC(F)(F)F)c(N2CCCC2)c1)c1c[nH]c2ccccc2c1=O` with ΔF508-CFTR (Homo sapiens, UniProt P13569, DEL508-508) was 25 to 100%

Note to self: Emax of `O=C(Nc1ccc(N2CCCC2)cc1)c1c[nH]c2ccccc2c1=O` with ΔF508-CFTR (Homo sapiens, UniProt P13569, DEL508-508) was 25 to 100%

Note to self: Emax of `CCOC(=O)Nc1cc(NC(=O)c2c[nH]c3ccccc3c2=O)ccc1C(C)C` with ΔF508-CFTR (Homo sapiens, UniProt P13569, DEL508-508) was 25 to 100%

Note to self: Emax of `Cc1c[nH]c2cc(NC(=O)c3c[nH]c4ccccc4c3=O)ccc12` with ΔF508-CFTR (Homo sapiens, UniProt P13569, DEL508-508) was 25 to 100%

Note to self: Emax of `O=C(Nc1ccc2c(c1)NCC2)c1c[nH]c2ccccc2c1=O` with ΔF508-CFTR (Homo sapiens, UniProt P13569, DEL508-508) was 25 to 100%
